tested on: F21T K+ (human telomeric G-quadruplex, potassium buffer); format: binding; details: ligand 10 μM, oligonucleotide 200 nM, 10 mM KCl
This listing pairs compounds with measured ΔTm F21T K+.
Your answer should be a plain number; it is taken to be in °C.

compound	ΔTm F21T K+, °C
C[n+]1c(/C=C/c2cc3c4c(c2)CCCN4CCC3)sc2ccccc21.[I-]	16.9
CN(C)c1ccc(/C=C/c2sc3ccccc3[n+]2C)cc1.[I-]	13.1
Cc1ccc2c(c1)sc(-c1ccc(N(C)C)cc1)[n+]2C [ThT, Thioflavin T, reference compound]	5.5
CN(C)c1ccc(/C=C/c2sc3ccccc3[n+]2C)c2ccccc12.[I-]	9.7
C[n+]1c(/C=C/c2ccc(-c3ccc(-c4ccc(N(c5ccccc5)c5ccccc5)cc4)cc3)o2)sc2ccccc21.[I-]	18.5

Attention now turns to another entry.
Data request: Indicate the recorded ΔTm F21T K+ value for this compound: C[n+]1c(/C=C/c2ccc(N(c3ccccc3)c3ccccc3)cc2)sc2ccccc21.[I-]
Data returned: 12.7

----------
test system: FEbr1T (T. brucei G-quadruplex); test: FRET melting assay, FEbr1T; assay type: binding; details: ligand 10 μM, oligonucleotide 200 nM, 10 mM KCl
Label key: True means ΔTm FEbr1T under 10 °C; False means ΔTm FEbr1T of 10 °C or more.

Data request: Does C[n+]1c(/C=C/c2cc3c4c(c2)CCCN4CCC3)sc2ccccc21.[I-] have ΔTm FEbr1T strictly under 10 °C?
Data returned: False

Data request: Does C[n+]1c(/C=C/c2ccc(N(c3ccccc3)c3ccccc3)cc2)sc2ccccc21.[I-] have ΔTm FEbr1T strictly under 10 °C?
Data returned: False

Data request: Does CN(C)c1ccc(/C=C/c2sc3ccccc3[n+]2C)c2ccccc12.[I-] have ΔTm FEbr1T strictly under 10 °C?
Data returned: True

----------
biological target: intracellular amastigote form of L. major; experiment: Luciferase assay, intracellular amastigotes in THP-1 macrophages; assay type: cell-based, Leishmania major; conditions: intracellular amastigotes in THP-1 macrophages, 72 h, luciferase
experimental_endpoint: pIC50
Remember, pIC50 is on a log scale: it is -log10 of the molar concentration.

Data request: Indicate the recorded pIC50 value for this molecule: COS(=O)(=O)[O-].Cc1cc2c3c([n+](C)c4ccc(F)cc4c3c1)-c1cc(F)ccc1N2C [RHPS4, reference compound]
Data returned: 7.52

----------
test system: THP-1 cells; assay: alamarBlue cytotoxicity assay, PMA-differentiated THP-1; type: cell-based, human; conditions: PMA-differentiated THP-1, 72 h
experimental_endpoint: IC50 (µM)
Your answer should be a plain number; it is taken to be in µM.

Data request: Indicate the recorded IC50 value for this compound: COS(=O)(=O)[O-].Cc1cc2c3c([n+](C)c4ccc(F)cc4c3c1)-c1cc(F)ccc1N2C [RHPS4, reference compound]
Data returned: 214

----------
system: MRC-5 cells; assay: alamarBlue cytotoxicity assay, MRC-5; format: cell-based; conditions: human lung fibroblasts, 72 h
experimental_endpoint: pIC50
Remember, pIC50 is on a log scale: it is -log10 of the molar concentration.

Data request: Indicate the recorded pIC50 value for this compound: COS(=O)(=O)[O-].Cc1cc2c3c([n+](C)c4ccc(F)cc4c3c1)-c1cc(F)ccc1N2C [RHPS4, reference compound]
Data returned: 5.39
